Numbers sourced from PubChem BioAssay.

System: Sam68 (KHDRBS1)
ASSAY_NOTES: compounds binding KHDRBS1 protein – biochemical, small-molecule microarray, 635 nm fluorescence, primary screen (AID 1125);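 also: score merges 667 nm channel intensity with signal to noise over triplicate slides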
REPORTED_CONDITIONS: higher = more signal
ASSAY_READOUT: composite z-score
Give the figure only, with no unit attached.

INSERT INTO measurements (compound, assay_readout, measurement) VALUES
  ('CCCNC(=O)[C@@H]1c2ccccc2C(=O)N(Cc2ccccc2OC)[C@H]1c1ccc(CO)cc1', 'composite z-score', 1.1),
  ('CCCCN1CC=CC23O[C@@H]4/C=C\CCCOC(=O)C4[C@H]2C(=O)N(CCCO)[C@@H]3C1=O (stereo partly drawn)', 'composite z-score', -0.158),
  ('COc1ccc(CCNC(=O)[C@@]2(c3ccc([N+](=O)[O-])cc3)CC(=O)N(CC34CC5CC(CC(C5)C3)C4)[C@@H]2c2ccc(CO)cc2I)cc1', 'composite z-score', 0.925),
  ('C#CCOc1ccc(C[C@@H](C(=O)OC)N(CC#C)[C@@H](/C=C/C2CC2)[C@H](O)Cc2ccccc2)cc1', 'composite z-score', -0.51),
  ('COCCCNC(=O)[C@@]1(Cc2ccccc2CN=[N+]=[N-])N=C(c2ccc(OCCCO)cc2)O[C@H]1c1ccccc1CN=[N+]=[N-]', 'composite z-score', 1.29);

Param item = CN1C(=O)C2C=CC(C(O)c3ccc(F)cc3)N(N(c3ccccc3)c3ccccc3)C2C1=O (stereo not drawn) ; retrieve measured composite z-score.
-0.0714

What do you get for O=C1OCCC=C[C@H]2OC34C=CCN(Cn5nnc6ccccc65)C(=O)[C@H]3N(CCO)C(=O)[C@@H]4C12 (stereo partly drawn) ?
-0.75

Also COc1cc2c(cc1O)C(c1cccs1)N(Cc1cccc(OC(F)(F)F)c1)CC2 (stereo not drawn) ?
1.15

====

ASSAY_NOTES: blood-stage malaria parasite viability loss – strain 3D7, DAPI fluorescence, 100 nL, primary screen (AID 1184);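 also: parasites grown inside human red blood cells in medium with human serum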
REPORTED_CONDITIONS: P. falciparum 3D7 growth, 3 d, higher = more signal
Listed here are compounds together with their documented z-score.
Field format: numeric only.

Consider the worked cases shown below.
INSERT INTO assay_data (compound, measurement) VALUES
  ('C[C@H]1C2[C@H](Cc3ccccc3)NC(=O)[C@]23C(=O)NCC(=O)N2CCC[C@H]2C(=O)NC/C=C/CCC/C=C/C3[C@@H]2O[C@]12C (some centres not stated)', -1.48),
  ('COCCOC(=O)N1C(=O)[C@@]2(c3cc(C#Cc4ccc(OC)cc4)ccc31)[C@H](c1ccc(O)cc1)N1[C@H](c3ccccc3)[C@H](c3ccccc3)OC(=O)[C@H]1[C@@H]2C(=O)Nc1nc2ccccc2s1', -0.0098),
  ('COc1ccc([Si](C)(C)[C@@H]2[C@@H](CC(=O)N3Cc4ccccc4C[C@H]3CO)O[C@]3(C(=O)N(Cc4cccc(N5CCC5=O)c4)c4ccccc43)[C@H]2C)cc1', -2.55);

For the compound shown here, "CCOC(=O)C[C@H]1[C@H](OC(=O)c2ccc(C(=O)c3ccccc3)cc2)[C@@H](NC(=O)Cc2ccc(OC)cc2)c2cc(OCCCO)ccc2N1C(=O)c1ccc2ccccc2n1" , give the reported z-score.
-0.129

Another compound to check: OCCCC1=CC(C2CC2)N(Cc2cccc(OC(F)(F)F)c2)CC1 (configuration not stated)
-1.76

Do the same for "CCCCC(=C=CC[C@H](O)c1cccc(OCCO)c1)C[C@H](O)c1ccccn1" please
-1.78

What do you have for "COCCOC(=O)N1C(=O)[C@@]2(c3cc(C#CC4(O)CCCCCC4)ccc31)[C@H](c1ccccc1OCCO)N1[C@H](c3ccccc3)[C@H](c3ccccc3)OC(=O)[C@H]1[C@@H]2C(=O)N1CCc2cc(OC)c(OC)cc2C1" ?
-1.89

====

SYSTEM_UNDER_TEST: Torsin-1A-interacting protein 1 (Homo sapiens)
ASSAY_NOTES: compound microarray binding of lysate hLAP1 – cell lysate, small-molecule microarray, COS7 lysate, 635/667 nm fluorescence, primary screen (AID 1116)
REPORTED_CONDITIONS: 635 nm fluorescence, higher = more signal
Overview of reported composite z-score across a group of compounds:
Just the number, please, no unit attached.

// worked examples, composite z-score included
INSERT INTO results (compound, assay_readout, measurement) VALUES
  ('CC(C)=CCCC(C)=CC(O)C1C=CC2C(=O)N(c3ccccc3)C(=O)C2N1Nc1ccc(C(C)C)cc1 (stereo not given)', 'composite z-score', 0.203),
  ('CN1C(=O)C2C=CC(C(O)C=Cc3ccc([N+](=O)[O-])cc3)N(Nc3ccccc3)C2C1=O (stereo not given)', 'composite z-score', 0.582),
  ('C=CCNC(=O)[C@@H]1[C@H]2C(=O)O[C@H](c3ccccc3)[C@H](c3ccccc3)N2[C@H](c2ccc(OCCO)cc2)[C@@]12C(=O)N(C(=O)OCCOC)c1ccc(C#CCC(C(=O)OC)C(=O)OC)cc12', 'composite z-score', 1.03),
  ('CCCCCCc1nc(-c2ccc(-c3ccc(Cl)c(Cl)c3)o2)cc2c1[Si](C(C)C)(C(C)C)O[C@H]2c1ccccc1', 'composite z-score', -0.741),
  ('COc1ccc(C(O)C2C=CC3C(=O)N(C)C(=O)C3N2N(c2ccccc2)c2ccccc2)c2ccccc12 (stereo not given)', 'composite z-score', 1.68),
  ('CCCCC(=C=CC[C@@H](O)c1cccc(OCCO)c1)C[C@@H](O)c1ccccn1', 'composite z-score', 1.25),
  ('CC(C)CCC[C@@H](C)[C@H]1CC[C@@]2(C)C3=C(CC[C@]12C)[C@@]1(C)CC[C@H](OC(=O)c2ccc(C(F)(F)F)nc2)C(C)(C)C1CC3 (stereo not given in full)', 'composite z-score', 0.69),
  ('COC(=O)C(CC#Cc1ccc2c(c1)[C@]1(C(=O)N2)[C@H](c2ccc(O)cc2)N2[C@H](c3ccccc3)[C@H](c3ccccc3)OC(=O)[C@H]2[C@@H]1C(=O)N1CCN(c2ncccn2)CC1)C(=O)OC', 'composite z-score', 0.683);

Entry "COC(=O)c1c(CC[C@@H](CO)NC(=O)NCCc2c[nH]c3ccccc23)oc(C(=O)Cc2ccccc2)c1C(=O)OC" : reported composite z-score = ?
0.385

For O=C1C2C=CC(C(O)COCc3ccccc3)N(Nc3ccc([N+](=O)[O-])cc3)C2C(=O)N1c1ccccc1 (stereo not given) then?
0.548

// repeat for "CCCC=C(CCC)[C@@H](NC(=O)OCC(C)C)c1ccccc1" and report
0.226

Please answer likewise for CC(c1ccccc1)C(O)C1C=CC2C(=O)N(C)C(=O)C2N1NC(=O)OC(C)(C)C (stereo not given)
2.11

// same read-out, input: "[N-]=[N+]=Nc1ccccc1C[C@]1(C(=O)NCc2ccccc2)N=C(c2ccc(OCCCO)cc2)O[C@H]1c1ccccc1N=[N+]=[N-]"
1.02

Entry "Cc1ccc(S[C@]2(C(=O)O)CC(=O)N(Cc3ccccc3C(F)(F)F)[C@@H]2c2ccc(CO)cc2I)cc1" please
-0.327

Check "C#CCN1[C@H](/C=C/C2CC2)[C@H](Cc2ccccc2)OC(=O)[C@@H]1Cc1ccccc1" too.
0.0223

Now the same for "O=C(NCc1ccccc1)[C@@H]1c2ccccc2C(=O)N(C2Cc3ccccc3C2)[C@H]1c1ccc(CO)cc1"
0.628

====

Measured composite z-score, listed per entry.
SYSTEM_UNDER_TEST: Streptavidin (Streptomyces avidinii)
ASSAY_NOTES: compounds binding control protein streptavidin – biophysical, small-molecule microarray, 635/667 nm fluorescence, artefact control for SMM compound annotation, primary screen (AID 1147);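 also: signal reflects streptavidin binding to arrayed compounds as a control protein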
REPORTED_CONDITIONS: higher = more signal
Form field (numeric): enter value without unit.

Any idea what composite z-score came out for "C=CC[C@]1(C(=O)N2CCOCC2)N=C(c2ccc(OCCCO)cc2)O[C@H]1c1ccccc1N=[N+]=[N-]" on Streptavidin (Streptomyces avidinii)?
0.883

====

Quick list: composite z-score per entry.
ASSAY_NOTES: probe aShh binding to arrayed compounds – biochemical, biotinylated probe, 635/667 nm fluorescence, primary screen (AID 1114);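 also: probe is biotin-labelled aShh protein from a stem cell growth factor screen; measures binding of labelled protein to compounds printed on the slide; score merges feature fluorescence at 667 nm with signal-to-noise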
REPORTED_CONDITIONS: small-molecule microarray, higher = more signal
Number only, no unit.

Known results for molecules:
INSERT INTO measurements (smiles_code, assay_readout, measurement) VALUES
  ('COc1ccc([C@H]2OC[C@@H]3CCC(=O)N32)cc1', 'composite z-score', 0.0062),
  ('O=C(CS)NCCCCCNC(=O)[C@H]1C[C@H]2C(=O)NCC(=O)N2[C@H]1c1ccc(O)cc1', 'composite z-score', -0.214),
  ('COC(=O)[C@@]1(Cc2ccccc2)[C@H]2c3cc(C(=O)N(C)C)n(CCc4c[nH]c5ccc(O)cc45)c3C[C@H]2CN1C(=O)c1ccccc1', 'composite z-score', -0.0146);

# input molecule: "COc1ccccc1CN1C(=O)c2ccccc2[C@@]2(Cc3ccccc3N(CCCN(C)C)C2=O)[C@@H]1c1ccc(CO)cc1" ; wanted: its composite z-score
-0.282
